system: OVCAR-4; experiment: NCI tumour cell line growth inhibition, 48 h
The source made the active and inactive calls. No stated cut-off is given here; in the data, active = GI50 up to about 1.1 µM and inactive = higher.
readout.name: GI50

molecule: OCCOCn1cc(Cn2ncc3c(SCc4ccccc4)ncnc32)nn1
measured: 59.3 µM (inactive)

molecule: CC[N+]1(C)CCC(O)(c2ccc(C)cc2)C(C(=O)c2ccc(C)cc2)C1 (stereo not given)
measured: 34.4 µM (inactive)

molecule: Cc1ccc(-n2c3nc(=O)n(C)c(=O)c-3nc3ccccc32)cc1
measured: 14.5 µM (inactive)

molecule: COc1ccc(N2C(=O)CC(=O)N(C(=O)CCCCCCCCC(=O)N3C(=O)CC(=O)N(c4ccc(OC)cc4)C3=S)C2=S)cc1
measured: > 100 µM (inactive)

molecule: CC(C)[C@](O)(C(=O)OCC1=CC[N+]2([O-])CC[C@@H](O)[C@@H]12)[C@H](C)O (stereo not given in full) [INDICINE N-OXIDE]
measured: > 10000 µM (inactive)

molecule: Cc1ccc(C)c(NC(=O)CC2C(=O)Nc3ccccc3S2(=O)=O)c1 (stereo not given)
measured: 19 µM (inactive)

molecule: COc1c(C(C)(C)C)cc(CC2C(=O)C=CC2=O)cc1C(C)(C)C
measured: 21.2 µM (inactive)

molecule: COc1cccc([C@@H]2C/C(=N\NC(=O)C(=O)N[C@@H](C)c3ccccc3)c3ccccc3N2)c1
measured: 34.8 µM (inactive)

molecule: C[N+](C)([O-])CCCNc1ccnc2cccc([N+](=O)[O-])c12
measured: 20.5 µM (inactive)

molecule: O=C1C=CC2(CCC23C=CC(=O)O3)O1 (stereo not given)
measured: > 100 µM (inactive)
